- Subject Of Test: T1, human Dectin-1 (biosensor tests of Tables 3, 4A and 9; construct not stated) (human, UniProt Q9BXN2 66-247, limits assumed)
- T1 construct: also called hDectin-1
- T1 sequence (looked up): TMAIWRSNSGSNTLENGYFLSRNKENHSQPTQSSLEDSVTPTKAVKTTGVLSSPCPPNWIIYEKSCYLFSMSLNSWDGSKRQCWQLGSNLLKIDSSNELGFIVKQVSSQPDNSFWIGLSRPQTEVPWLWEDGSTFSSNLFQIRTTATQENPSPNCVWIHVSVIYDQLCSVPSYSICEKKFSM
- Assay Protocol: Fab K dis, run 3
Property Measured: koff (s⁻¹)

2M24A.31 hFab L2 (Fab, V domains shown, Fab; also called 2M24.L2) VH: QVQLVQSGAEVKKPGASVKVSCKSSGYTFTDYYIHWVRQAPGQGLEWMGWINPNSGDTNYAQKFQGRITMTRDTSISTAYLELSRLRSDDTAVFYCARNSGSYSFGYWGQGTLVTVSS VL: DIQMTQSPSSVSASVGDRVTITCRASQGISSWLAWYQQKPGKAPKLLIYGASSLQSGVPSRFSGSGSGTDFTLTISSLQPEDFATYYCQQAYSFPFTFGPGTKVDIE | 0.00239
2M24A.32 hFab L3 (Fab, V domains shown, Fab; also called 2M24.L3) VH: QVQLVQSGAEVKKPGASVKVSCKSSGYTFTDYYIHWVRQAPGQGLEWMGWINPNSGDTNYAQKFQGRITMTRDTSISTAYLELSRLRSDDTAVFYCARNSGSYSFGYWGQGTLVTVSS VL: DIQMTQSPSSVSASVGDRVTITCRASQGISSWLAWYQQKPGKAPKLLIFAASSLQSGVPSRFSGSGSGTDFTLTISSLQPEDFATYYCQQAYSFPFTFGPGTKVDIE | 0.00233
2M24A.30 hFab L1 (Fab, V domains shown, Fab; also called 2M24.L1) VH: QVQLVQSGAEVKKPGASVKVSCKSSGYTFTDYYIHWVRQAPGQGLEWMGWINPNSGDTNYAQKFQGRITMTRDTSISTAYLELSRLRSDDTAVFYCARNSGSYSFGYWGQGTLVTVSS VL: DIQMTQSPSSVSASVGDRVTITCRASQGISSWLAWYQQKPGKAPKLLIFGASSLQSGVPSRFSGSGSGTDFTLTISSLQPEDFATYYCQQAYSFPFTFGPGTKVDIE | 0.00213
